# procedure_details: Plasma and liver studies after 14 days of repeated oral dose
# Type: in vivo, C57/BL6 mice
# conditions_used: C57/BL6, mouse, liver/plasma; 50 mg/kg BID oral 14 days, Male mice; read-out: Liver to Plasma Ratio
readout_label: Kp at 14 days
Could you respond with only the numeric value?

Lab book: Kp at 14 days of "COC(=O)C1=CNC=C(C(=O)OC)C1c1ccc(F)c(C(F)(F)F)c1" noted as 19.6

* * *

# procedure_details: Plasma and liver studies after 14 days of repeated oral dose
# Type: in vivo, C57/BL6 mice
# conditions_used: C57/BL6, mouse, liver; 25 mg/kg BID oral 14 days, Female mice; read-out: Average Concentration Liver
readout_label: concentration at 14 days (ng/g)
Reply numerically in ng/g, unit not repeated.

Lab book: concentration at 14 days of COC(=O)C1=CNC=C(C(=O)OC)C1c1ccc(F)c(C(F)(F)F)c1 [Compound 103] noted as 8420

* * *

# system_name: KV1.4 (Homo sapiens)
# Construct: expressed in transfected cells; host or cells: LTK
# Sequence (P22459 whole entry): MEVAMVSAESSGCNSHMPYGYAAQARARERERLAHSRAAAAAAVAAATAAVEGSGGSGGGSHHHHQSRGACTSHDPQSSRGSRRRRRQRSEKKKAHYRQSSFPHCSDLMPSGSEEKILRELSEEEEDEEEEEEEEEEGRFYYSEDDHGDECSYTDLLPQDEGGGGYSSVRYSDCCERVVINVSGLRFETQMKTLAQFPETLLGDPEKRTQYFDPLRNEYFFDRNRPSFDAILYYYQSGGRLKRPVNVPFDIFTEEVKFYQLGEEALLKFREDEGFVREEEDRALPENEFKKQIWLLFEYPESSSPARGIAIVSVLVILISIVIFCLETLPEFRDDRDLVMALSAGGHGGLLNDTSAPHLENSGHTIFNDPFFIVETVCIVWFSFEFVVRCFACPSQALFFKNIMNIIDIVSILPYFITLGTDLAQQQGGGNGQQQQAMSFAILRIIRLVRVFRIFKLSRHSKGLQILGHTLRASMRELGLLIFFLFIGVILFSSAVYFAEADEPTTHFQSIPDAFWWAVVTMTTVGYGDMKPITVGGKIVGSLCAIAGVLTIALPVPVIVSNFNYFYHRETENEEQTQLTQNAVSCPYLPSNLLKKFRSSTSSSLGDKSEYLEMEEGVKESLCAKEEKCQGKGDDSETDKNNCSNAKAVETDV
# procedure_details: Potassium channels patch-clamp (QPatch), KV1.4
# Format: cell-based
readout_label: IC50

molecule_smiles=COC(=O)C1=C(C)NC(C)=C(C(=O)OC)C1c1ccc(F)c(C(F)(F)F)c1 value_observed="> 10 µM"

Pending compound:
Lab book: IC50 of "COC(=O)C1=CNC=C(C(=O)OC)C1c1ccc(F)c(C(F)(F)F)c1" noted as > 10 µM

* * *

# procedure_details: Plasma and brain distribution studies
# conditions_used: male, C57BL/6, mouse, plasma, ip, 50 mg/kg
readout_label: Tmax (min)
Reply numerically in min, unit not repeated.

Lab book: Tmax of COC(=O)C1=CNC=C(C(=O)OC)C1c1ccc(F)c(C(F)(F)F)c1 [Compound 103] noted as 15

* * *

# system_name: KV1.1 (Mus musculus)
# Construct: expressed in transfected cells; host or cells: L929
# Sequence (P16388 whole entry): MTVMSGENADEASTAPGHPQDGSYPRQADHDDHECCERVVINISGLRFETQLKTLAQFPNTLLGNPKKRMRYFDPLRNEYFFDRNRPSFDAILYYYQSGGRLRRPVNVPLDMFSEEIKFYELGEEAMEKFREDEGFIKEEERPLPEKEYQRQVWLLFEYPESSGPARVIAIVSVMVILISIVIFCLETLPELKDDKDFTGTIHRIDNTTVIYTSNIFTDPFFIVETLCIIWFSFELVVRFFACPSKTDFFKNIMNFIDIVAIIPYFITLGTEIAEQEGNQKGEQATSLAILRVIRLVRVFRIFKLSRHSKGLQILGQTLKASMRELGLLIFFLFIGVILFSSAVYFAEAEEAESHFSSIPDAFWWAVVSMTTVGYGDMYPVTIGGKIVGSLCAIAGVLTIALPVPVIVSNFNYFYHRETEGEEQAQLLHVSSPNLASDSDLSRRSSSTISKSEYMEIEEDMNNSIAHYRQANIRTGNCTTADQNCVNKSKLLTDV
# procedure_details: Potassium channels patch-clamp (QPatch), KV1.1
# Assay type: cell-based
Recorded IC50, one value per entry.

molecule_smiles=COC(=O)C1=C(C)NC(C)=C(C(=O)OC)C1c1ccc(F)c(C(F)(F)F)c1 system_name="KV1.1 (Mus musculus)" value_observed="> 10 µM"

Pending compound:
Measured IC50 (KV1.1 (Mus musculus)), entry "COC(=O)C1=CNC=C(C(=O)OC)C1c1ccc(F)c(C(F)(F)F)c1" : > 10 µM

* * *

# system_name: KV1.3 (Mus musculus, UniProt P16390)
# Construct: expressed in transfected cells; host or cells: L929
# Sequence (P16390 whole entry): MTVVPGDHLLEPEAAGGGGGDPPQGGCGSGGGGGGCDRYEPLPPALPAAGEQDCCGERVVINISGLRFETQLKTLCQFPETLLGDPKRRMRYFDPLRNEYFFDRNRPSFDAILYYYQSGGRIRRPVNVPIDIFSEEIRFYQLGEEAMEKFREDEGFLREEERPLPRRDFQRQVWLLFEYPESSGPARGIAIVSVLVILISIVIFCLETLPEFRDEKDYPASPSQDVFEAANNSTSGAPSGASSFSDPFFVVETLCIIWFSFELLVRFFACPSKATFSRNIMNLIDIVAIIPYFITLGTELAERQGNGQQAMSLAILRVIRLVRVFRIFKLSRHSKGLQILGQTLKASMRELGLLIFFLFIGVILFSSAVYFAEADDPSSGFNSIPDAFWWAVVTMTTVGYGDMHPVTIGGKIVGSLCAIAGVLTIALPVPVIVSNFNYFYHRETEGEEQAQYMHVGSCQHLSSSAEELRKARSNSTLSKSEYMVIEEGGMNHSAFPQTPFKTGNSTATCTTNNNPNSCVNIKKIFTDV
# procedure_details: Potassium channels patch-clamp (QPatch), KV1.3
# Format: cell-based
pIC50: −log10 of the molar value.
Recorded pIC50, one value per entry.

compound="COC(=O)C1=C(C)NC(C)=C(C(=O)OC)C1c1ccc(F)c(C(F)(F)F)c1 [Compound 101]" value_observed="< 5.00"

Pending compound:
Lab book: pIC50 of COC(=O)C1=CNC=C(C(=O)OC)C1c1ccc(F)c(C(F)(F)F)c1 [Compound 103] noted as < 5.00

* * *

# system_name: KCa3.1 channel (Homo sapiens)
# procedure_details: KCa3.1 patch-clamp (QPatch HTX automated and manual)
# Assay type: cell-based
# conditions_used: IC50 (nM), block of KCa3.1, patch clamp (Table 2)
# Method: The effect of the compounds on KCa3.1 channel was evaluated by patch-clamp using a QPatch HTX automated electrophysiology platform (Sophion, Denmark) and by manual patch-clamp (HEKA, Germany). […] Current slopes (in amperes per second) were measured using the Sophion QPatch software and exported to Microsoft Excel and GraphPad Prism 7 for analysis. […]
Recorded IC50, one value per entry.
Reply numerically in nM, unit not repeated.

Previously resolved entries follow.
compound=COC(=O)C1=C(C)NC(C)=C(C(=O)OC)C1c1ccc(F)c(C(F)(F)F)c1 readout_label=IC50 value_observed=16
compound=COC(=O)C1=CNC=C(C(=O)OC)C1c1cc(F)cc(C(F)(F)F)c1 readout_label=IC50 value_observed=4.5
compound="COC(=O)C1=C(C)NC(C)=C(C(C)=O)C1c1ccc(F)c(C(F)(F)F)c1 (centres unmarked)" readout_label=IC50 value_observed=16.8
compound=COC(=O)C1=CNC=C(C(=O)OC)C1c1cccc(C(F)(F)F)c1 readout_label=IC50 value_observed=18.5

Pending compound:
Measured IC50 (KCa3.1 channel (Homo sapiens)), entry "COC(=O)C1=C(C)NC(C)=C(C(=O)OC)C1c1ccc(Cl)c(C(F)(F)F)c1" : 7
